Reference for the values: patent US5776935A

# TARGET_SYSTEM: NMDA receptor (Rattus norvegicus)
# Construct: endogenous in cells
# PROCEDURE_TEXT: Patch clamp, inward currents to NMDA in cultured superior colliculus neurones
# Assay type: cell-based
# APPLIED_CONDITIONS: NMDA 200 μM, glycine 1 μM, plateau (steady-state) currents; read-out: Plateau NMDA IC50
A collection of compounds and their measured pIC50
Scale note: pIC50 = -log10(concentration in M).

                           compound                      target_system  assay_readout  reported_result
0  O=c1[nH][nH]c(=O)c2nc3ccccc3cc12  NMDA receptor (Rattus norvegicus)          pIC50             4.72

pIC50 value, target or system NMDA receptor (Rattus norvegicus), for "O=c1[nH][nH]c(=O)c2nc3cc(Cl)c(Cl)cc3cc12" : 6.05

Case "COc1ccc2cc3c(=O)[nH][nH]c(=O)c3nc2c1" , NMDA receptor (Rattus norvegicus), pIC50 recorded as 4.84

Observed pIC50 on NMDA receptor (Rattus norvegicus), entry O=c1[nH][nH]c(=O)c2nc3ccc(Cl)cc3cc12 [Mrz 2/569] , equals 6.30

// assay NMDA receptor (Rattus norvegicus), entry O=c1[nH]nc(O)c2c1cc1cc(Cl)ccc1[n+]2[O-] [Mrz 2/502] , pIC50 value = 6.52
